# Assay comment: Tmax in rat at 10 mg/kg
# Format: ADME, organism-based
# Set-up: dose 10 mg/kg
# Setup conditions: in vivo
Reported endpoint: Tmax (h)

1. FC(F)(F)c1ccccc1-c1ccc2[nH]c(/C=C/C3CCCCC3)nc2c1 | 1.6

###

# Measured target: Cytochrome P450 2C19 (Homo sapiens)
# Sequence (P33261 whole entry): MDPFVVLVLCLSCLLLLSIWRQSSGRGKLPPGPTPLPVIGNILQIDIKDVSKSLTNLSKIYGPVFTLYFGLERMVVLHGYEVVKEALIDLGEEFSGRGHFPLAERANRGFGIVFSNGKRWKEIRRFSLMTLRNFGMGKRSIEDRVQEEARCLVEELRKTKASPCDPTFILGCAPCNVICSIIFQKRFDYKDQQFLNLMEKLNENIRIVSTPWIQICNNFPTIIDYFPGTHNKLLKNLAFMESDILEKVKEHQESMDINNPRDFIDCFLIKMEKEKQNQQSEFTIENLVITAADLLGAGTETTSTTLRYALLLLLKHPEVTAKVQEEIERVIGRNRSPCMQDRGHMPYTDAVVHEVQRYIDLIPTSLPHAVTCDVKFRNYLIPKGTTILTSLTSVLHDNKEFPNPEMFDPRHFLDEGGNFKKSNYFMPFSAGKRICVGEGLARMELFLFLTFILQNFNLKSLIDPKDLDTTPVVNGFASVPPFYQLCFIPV
# Assay comment: Inhibition of recombinant CYP2C19
# Type: ADME
Reported endpoint: IC50

1. FC(F)(F)c1ccccc1-c1ccc2[nH]c(/C=C/C3CCCCC3)nc2c1 | > 10 µM

###

# Assay comment: Metabolic stability in human liver microsomes assessed as compound remaining after 10 mins
# Type: ADME, Microsome
# Setup conditions: read-out: Stability
API: label(entry) gives Fulfilled if the entry's remaining at 10 min is strictly smaller than 80%; on equality or larger values it gives Not fulfilled.

1. FC(F)(F)Oc1ccccc1-c1ccc2[nH]c(/C=C/C3CCCCC3)nc2c1 | Fulfilled
2. FC(F)(F)c1ccccc1-c1ccc2[nH]c(/C=C/C3CCCCC3)nc2c1 | Not fulfilled
3. CC(=O)N1CCC(/C=C/c2nc3cc(-c4ccccc4C(F)(F)F)ccc3[nH]2)CC1 | Not fulfilled
4. FC1(F)CCC(/C=C/c2nc3cc(-c4ccccc4C(F)(F)F)ccc3[nH]2)CC1 | Fulfilled
5. CC1(/C=C/c2nc3cc(-c4ccccc4C(F)(F)F)ccc3[nH]2)CCC(F)(F)CC1 | Not fulfilled
6. FC(F)(F)c1ccccc1-c1ccc2[nH]c(/C=C/C3CCSCC3)nc2c1 | Fulfilled
7. O=S1(=O)CCC(/C=C/c2nc3cc(-c4ccccc4C(F)(F)F)ccc3[nH]2)CC1 | Not fulfilled
8. FC(F)(F)c1cccnc1-c1ccc2[nH]c(/C=C/C3CCCCC3)nc2c1 | Not fulfilled
9. FC(F)(F)c1ccccc1-c1ccc2[nH]c(/C=C/C3CCOCC3)nc2c1 | Not fulfilled
10. FC(F)(F)c1ccccc1-c1ccc2[nH]c(/C=C/C3CCNCC3)nc2c1 | Not fulfilled
11. Cc1ccccc1-c1ccc2[nH]c(/C=C/C3CCCCC3)nc2c1 | Fulfilled
12. CC1(/C=C/c2nc3cc(-c4ccccc4C(F)(F)F)ccc3[nH]2)CCOCC1 | Fulfilled
13. Fc1cccc(C(F)(F)F)c1-c1ccc2[nH]c(/C=C/C3CCCCC3)nc2c1 | Fulfilled
14. COc1ccccc1-c1ccc2[nH]c(/C=C/C3CCCCC3)nc2c1 | Fulfilled
15. Clc1ccccc1-c1ccc2[nH]c(/C=C/C3CCCCC3)nc2c1 | Fulfilled
16. Fc1ccccc1-c1ccc2[nH]c(/C=C/C3CCCCC3)nc2c1 | Not fulfilled
17. FC(F)(F)c1cccc(C(F)(F)F)c1-c1ccc2[nH]c(/C=C/C3CCCCC3)nc2c1 | Fulfilled
18. FC(F)(F)Oc1ccccc1-c1ccc2[nH]c(/C=C/C3CCCC3)nc2c1 | Not fulfilled
